- System: Rattus norvegicus
- procedureDetails: Toxicity in CFY Sprague-Dawley rat assessed as body weight gain at 0.25% dietary level administered for 7 days relative to control
- Format: organism-based
- statedConditions: in vivo, po, 168 h
measuredMetric: Activity (%)
Give bare numbers, in %.

Please supply Activity for each of the following items, keeping them in order.
1. CCOC(=O)c1ccc(OCc2ccc(OC)c(OC)c2)cc1
2. CCOC(=O)c1ccc(COc2ccc(C#N)cc2)cc1
3. O=C(OCc1ccccc1)c1ccc(OCc2ccccc2)cc1
4. Cc1ccc(OCc2ccccc2)cc1
5. COc1cc(C(C)=O)ccc1OCc1ccccc1
6. CCOC(=O)c1ccc(OCc2ccccc2Cl)cc1
7. CCOC(=O)c1ccc(OCc2cccc(OC)c2)cc1
8. CCOC(=O)c1ccc(OCc2ccc(C)c(C)c2)cc1

OUT:
[-20, -46, 6, -7, -37, -16, 2, -7]

Would you mind giving Activity for every compound in the list below?
1. CCOC(=O)Cc1ccc(OCc2ccc(C)cc2)cc1
2. CCOC(=O)c1ccc(OCc2ccc(Cl)cc2Cl)cc1
3. O=C([O-])c1ccc(OCc2ccccc2)cc1.O=C([O-])c1ccc(OCc2ccccc2)cc1.[Ca+2]
4. Cc1ccc(COc2ccc(C(=O)O)cc2)cc1

OUT:
1: -18; 2: -15; 3: -12; 4: -2

###

- Test system: Rattus norvegicus
- procedureDetails: Toxicity in CFY Sprague-Dawley rat assessed as body weight gain at 1% dietary level administered for 7 days relative to control
- Assay type: organism-based
- statedConditions: in vivo, po, 168 h
I'd be grateful if you could share measured Activity for these entries.
One number for each entry, in %.

Worked cases, answers included:
- inputSmiles: "CCOC(=O)Cc1ccc(OCc2ccccc2OC)cc1"
  Activity (%): -16
- inputSmiles: "CCOC(=O)c1ccc(OCc2ccccc2)cc1"
  Activity (%): -45

For each of the compounds below, state Activity.
1. CCOC(=O)c1ccc(OCc2ccc(Br)cc2)cc1
2. O=C(O)c1ccc(OCc2ccccc2)cc1
3. CCOC(=O)c1ccc(OCc2ccc(C)cc2)cc1

OUT:
1: -8; 2: -62; 3: -19

###

- Tested on: Rattus norvegicus
- procedureDetails: Toxicity in CFY Sprague-Dawley rat assessed as body weight gain at 0.25% dietary level administered for 7 days relative to control
- Format: organism-based
- statedConditions: in vivo, po, 168 h
Please respond with reported Activity for every item in the list.
Answers are plain numbers, in %.

- inputSmiles: "CCOC(=O)CCCCCc1ccc(OCc2ccccc2)cc1"
  studyTarget: "Rattus norvegicus"
  unitTag: "%"
  Activity: -7
- inputSmiles: "N#Cc1ccc(OCc2ccc(Cl)c(Cl)c2)cc1"
  studyTarget: "Rattus norvegicus"
  unitTag: "%"
  Activity: -9
- inputSmiles: "CCOC(=O)c1ccc(COc2ccc(C(=O)OCC)cc2)cc1"
  studyTarget: "Rattus norvegicus"
  unitTag: "%"
  Activity: 3
- inputSmiles: "CCCCCCCCCc1ccc(OCc2ccccc2)cc1"
  studyTarget: "Rattus norvegicus"
  unitTag: "%"
  Activity: -41
- inputSmiles: "CCOC(=O)c1ccc(OCc2cc(Cl)ccc2Cl)cc1"
  studyTarget: "Rattus norvegicus"
  unitTag: "%"
  Activity: 4
- inputSmiles: "Cc1ccc(OCc2ccccc2)cc1C"
  studyTarget: "Rattus norvegicus"
  unitTag: "%"
  Activity: 24

For each of the compounds below, state Activity.
1. CCOC(=O)c1ccccc1OCc1ccccc1
2. CCOC(=O)CCCc1ccc(OCc2ccccc2)cc1
3. O=C(c1ccc(OCc2ccccc2)cc1)N1CCCCC1

OUT:
-26
-57
-67

Parameter requested: Activity. Apply to each item below.
1. COC(=O)CCc1ccc(OCc2ccccc2)cc1
2. CCOC(=O)Cc1ccc(OCc2cccc(OC)c2OC)cc1
3. CCCCCCCCCCCCOC(=O)c1ccc(OCc2ccccc2)cc1
4. CCOC(=O)Cc1ccc(OCc2ccccc2OC)cc1

OUT:
-3
12
-3
6

###

- Test system: Rattus norvegicus
- procedureDetails: Toxicity in CFY Sprague-Dawley rat assessed as relative liver weight at 0.25% dietary level administered for 7 days relative to control
- Type: organism-based
- statedConditions: in vivo, po, 168 h
measuredMetric: Activity (%)
Answers are plain numbers, in %.

- inputSmiles: "O=C(O)c1ccc(OCc2ccccc2)cc1"
  Activity / %: 10

For every record below, what is its Activity?
1. CCOC(=O)c1ccc(OCc2ccccc2OC)cc1
2. CCOC(=O)Cc1ccc(OCc2ccccc2OC)cc1
3. CC(C)OC(=O)c1ccc(OCc2ccccc2)cc1
4. CCOC(=O)c1ccc(COc2ccc(Cl)cc2)cc1
5. CCOC(=O)Cc1ccc(OCc2ccccc2F)cc1
6. N#Cc1ccc(OCc2ccccc2)cc1

OUT:
-2
4
13
42
-22
8

###

- Test system: Rattus norvegicus
- procedureDetails: Hypolipidemic activity in CFY Sprague-Dawley rat assessed as serum triglyceride level at 1% dietary level administered for 7 days relative to control
- Assay type: functional
Give Activity for every item shown.
Give bare numbers, in %.

Example molecules with recorded Activity:
- inputSmiles: "CCOC(=O)c1ccc(OCc2ccc(C)cc2)cc1"
  studyTarget: "Rattus norvegicus"
  measuredMetric: "Activity"
  experimentalValue: -46
- inputSmiles: "CCOC(=O)c1ccc(OCc2ccccc2)cc1"
  studyTarget: "Rattus norvegicus"
  measuredMetric: "Activity"
  experimentalValue: -29
- inputSmiles: "CCOC(=O)c1ccc(OCc2ccc(Br)cc2)cc1"
  studyTarget: "Rattus norvegicus"
  measuredMetric: "Activity"
  experimentalValue: -39
- inputSmiles: "CCOC(=O)Cc1ccc(OCc2ccccc2OC)cc1"
  studyTarget: "Rattus norvegicus"
  measuredMetric: "Activity"
  experimentalValue: -53

IN: Checklist item: Activity tested on Rattus norvegicus, entry O=C(O)c1ccc(OCc2ccccc2)cc1 , value?
OUT: -34

###

- System: Rattus norvegicus
- procedureDetails: Hypolipidemic activity in CFY Sprague-Dawley rat assessed as serum cholesterol level at 0.2% dietary level administered for 7 days relative to control
- Type: functional
Criterion: Activity strictly under -20%. Met: Satisfied. Not met: Not satisfied.

- inputSmiles: "CCOC(=O)c1ccc(OCc2ccc(C)cc2)cc1"
  labelClass: "Not satisfied"
- inputSmiles: "CCOC(=O)Cc1ccc(OCc2ccccc2OC)cc1"
  labelClass: "Satisfied"
- inputSmiles: "CCOC(=O)c1ccc(OCc2ccc(Br)cc2)cc1"
  labelClass: "Satisfied"

API: the following record is the query input.
IN: Strictly below -20%: is that where Activity of O=C(O)c1ccc(OCc2ccccc2)cc1 sits?
OUT: Not satisfied

###

- Tested on: Rattus norvegicus
- procedureDetails: Toxicity in CFY Sprague-Dawley rat assessed as relative liver weight at 0.25% dietary level administered for 7 days relative to control
- Assay type: organism-based
- statedConditions: in vivo, po, 168 h
Exercise: for every item that follows, state its recorded Activity.
Numbers only, in %.

Worked set:
- inputSmiles: "O=C(OC1CCCC1)c1ccc(OCc2ccccc2)cc1"
  measuredMetric: "Activity"
  experimentalValue: -14
- inputSmiles: "CCOC(=O)c1ccc(COc2ccc(F)cc2)cc1"
  measuredMetric: "Activity"
  experimentalValue: 19
- inputSmiles: "CCOC(=O)c1ccc(OCc2ccc(C)cc2)cc1"
  measuredMetric: "Activity"
  experimentalValue: 4
- inputSmiles: "CCOC(=O)c1ccc(COc2ccc(C(=O)OCC)cc2)cc1"
  measuredMetric: "Activity"
  experimentalValue: -2
- inputSmiles: "CCCc1ccc(OCc2ccccc2)c(OC)c1"
  measuredMetric: "Activity"
  experimentalValue: 17

Give Activity for all compounds that follow.
1. CCOC(=O)CCc1ccc(OCc2ccccc2F)cc1
2. Cc1ccc(COc2ccc(C#N)cc2)cc1

OUT:
1: 7; 2: 27

###

- Tested on: Rattus norvegicus
- procedureDetails: Toxicity in CFY Sprague-Dawley rat assessed as body weight gain at 0.25% dietary level administered for 7 days relative to control
- Assay type: organism-based
- statedConditions: in vivo, po, 168 h
measuredMetric: Activity (%)
Answers are plain numbers, in %.

Here are 2 compounds together with their reported answers.
- inputSmiles: "NC(=O)c1ccc(OCc2ccccc2)cc1"
  Activity, %: -2
- inputSmiles: "CCOC(=O)c1ccc(OCc2ccc(Br)cc2)cc1"
  Activity, %: 1

For every listed record, write down its Activity.
1. O=C(Oc1ccccc1)c1ccc(OCc2ccccc2)cc1
2. O=Cc1ccc(OCc2ccc(F)cc2)cc1
3. N#Cc1ccc(OCc2ccccc2)cc1
4. CCOC(=O)CCc1ccc(OCc2cccc(F)c2)cc1
5. O=C(O)c1ccc(OCc2ccccc2)cc1
6. CCOC(=O)c1ccc(OCc2cccc(Cl)c2)cc1

OUT:
-1
16
-14
12
-5
-1

Return reported Activity values for all items listed beneath this line.
1. CCOC(=O)CCc1ccc(OCc2ccccc2F)cc1
2. O=C(O)c1ccc(OCc2ccc(Cl)c(Cl)c2)cc1
3. CCOC(=O)c1ccc(OCc2ccc(OC)cc2)cc1
4. COc1cc(C=O)ccc1OCc1ccccc1
5. CCCCCCOC(=O)c1ccc(OCc2ccccc2)cc1

OUT:
1. 14
2. 7
3. -52
4. -16
5. -3

For each listed entry, give its Activity.
1. CCOC(=O)Cc1ccc(OCc2ccc(F)cc2)cc1
2. CCOC(=O)Cc1ccc(OCc2ccccc2F)cc1

OUT:
1. 3
2. -20

For every item below, please supply its Activity.
1. CCCCCCCCCCOC(=O)c1ccc(OCc2ccccc2)cc1
2. CCOC(=O)c1ccc(OCc2cccc([N+](=O)[O-])c2)cc1
3. COc1ccccc1COc1ccc(C(=O)O)cc1
4. OCc1ccc(OCc2ccccc2)cc1
5. O=C([O-])c1ccc(OCc2ccccc2)cc1.[K+]
6. CCOC(=O)Cc1ccc(OCc2ccc(Cl)cc2)cc1

OUT:
-17
-29
3
11
-12
-10
